measured-target: T1, OsE2F1 aa 100-250 (Oryza sativa)
T1 construct: bait, Gal4 DBD fusion; also called PN19758; O. sativa E2F Homolog
T1 sequence (chain, as listed by the source): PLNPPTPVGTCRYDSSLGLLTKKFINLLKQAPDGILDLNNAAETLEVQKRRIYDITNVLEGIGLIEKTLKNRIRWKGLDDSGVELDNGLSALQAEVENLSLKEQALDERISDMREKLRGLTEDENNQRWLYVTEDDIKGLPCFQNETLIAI
assay-comment: Y2H; output trait library

{"columns": ["binder", "binding result"],
 "data": [
  ["OsPN26539 aa 194-346 (other, prey, AD fusion) TEIIGLKGRIDKKNAYLQELEDQFVGLQNLAQRNEQLYGSGNAPSGGVALPFILVQTRPHATVEVEISEDMQLVHFDFNSTPFELHDDSFVLKALGFSGKEPDDTQAWVGNGGECSTTPIYHQSPQVARPNGVRLPTSPPIPGILKGRVKHEH", "binds"],
  ["OsPN26539 aa 66-346 (other, prey, AD fusion; also called Novel Protein PN26539, Probable DP) DDAPSSQPATSKKKKRGPGTRATGPDKGGRGLRQFSMKVCEKVESKGRTTYNEVADELVAEFADPNNNFASPDPDNPNTPQFDEKNIRRRVYDALNVLMAMDIISKDKKEIQWKGLPRTSMSDVEELKTEIIGLKGRIDKKNAYLQELEDQFVGLQNLAQRNEQLYGSGNAPSGGVALPFILVQTRPHATVEVEISEDMQLVHFDFNSTPFELHDDSFVLKALGFSGKEPDDTQAWVGNGGECSTTPIYHQSPQVARPNGVRLPTSPPIPGILKGRVKHEH", "binds"],
  ["OsPN26539 aa 82-253 (other, prey, AD fusion) GPGTRATGPDKGGRGLRQFSMKVCEKVESKGRTTYNEVADELVAEFADPNNNFASPDPDNPNTPQFDEKNIRRRVYDALNVLMAMDIISKDKKEIQWKGLPRTSMSDVEELKTEIIGLKGRIDKKNAYLQELEDQFVGLQNLAQRNEQLYGSGNAPSGGVALPFILVQTRPH", "binds"]
]}
